Listed next: entries and their corresponding No. colonies.
Molecular target: TGF-β1 (Homo sapiens, UniProt P01137)
Sequence (P01137 279-390 limits assumed, species assumed): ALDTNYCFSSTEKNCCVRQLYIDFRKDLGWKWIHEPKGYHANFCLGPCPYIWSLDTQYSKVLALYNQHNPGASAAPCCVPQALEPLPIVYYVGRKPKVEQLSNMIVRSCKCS
Assay: Biopanning of phage-displayed 15-aa peptide library on biotinylated TGF-β1, number of colonies per sequence
Assay type: binding
Design: purchased Roche; host or cells: added to Mv-1-Lu (CCL-64) mink lung epithelial cells
Conditions: clones carrying the sequence among 108 colonies after the last biopanning cycle; approximate indication of affinity for TGF-β1
Ends that are not written are not given here.
I'd appreciate a reply containing only the number, no unit.

Here is how some sequences turned out for No. colonies.
DRRIFWWSNRSAPGA [SEQ ID NO: 2] ... 1
HVRLHHYLRHRSLPN [SEQ ID NO: 21] ... 1
RLHGHRSHRFTHVAQ [SEQ ID NO: 16] ... 1
PPYHRFWRGHRHAVQ [SEQ ID NO: 6] ... 12
WHKYFLRRPLSVGLG [SEQ ID NO: 12] ... 1

Entry VPMALNHGVYVMVSS [SEQ ID NO: 22] : reported No. colonies = ?
1

What does the record list as No. colonies for MPLSRYWWLFSHRPR [SEQ ID NO: 18] ?
1

Given the sequence WHKYFLRRPLSVRTR [SEQ ID NO: 11] , what is its reported No. colonies?
4

Value lookup for No. colonies; key = RHLSHFKWLRSHGLD [SEQ ID NO: 19]
1

----------
Target: TGF-β1 (Homo sapiens, UniProt P01137)
Format: cell-based
Parameters: purchased Roche; host or cells: added to Mv-1-Lu (CCL-64) mink lung epithelial cells
Details: Mv-1-Lu proliferation
Ends that are not written are not given here.
metric: inhibition of the biological activity of TGF-β1 in vitro (in words)

RFFTRFPWHYHASRL [SEQ ID NO: 3] ... only inhibitory activity
MPLSRYWWLFSHRPR [SEQ ID NO: 18] ... only inhibitory activity
RKWFLQHRRMPVSVL [SEQ ID NO: 13] ... inhibitory capacity
WHKYFLRRPLSVRTR [SEQ ID NO: 11] ... inhibitory capacity
SGRRHLHRHHIFSLP [SEQ ID NO: 14] ... inhibitory capacity
PPYHRFWRGHRHAVQ [SEQ ID NO: 6] ... inhibitory capacity

Now let's try a different one.
# query: inhibition of the biological activity of TGF-β1 in vitro (in words) of entry RLAHSHRHRSHVALT [SEQ ID NO: 4]
inhibitory capacity

----------
Molecular target: TGF-β1 (Mus musculus)
Construct: from tissue; host or cells: liver of Balb/C mice (CCl4 model); lung of C57BL/6 mice (bleomycin model)
Sequence (P04202 279-390 limits assumed): as the sequence (P01137 279-390 limits assumed, species assumed) above, with A75S counted along it
Experiment: Model of acute liver damage induced by CCl4, type I collagen mRNA by real time PCR
Assay type: in vivo, mice
Conditions: acute liver damage, type I collagen mRNA
Ends that are not written are not given here.
metric: inhibition of the biological activity of TGF-β1 in vivo (in words)

Field: example entries. Status: answers known.
RLAHSHRHRSHVALT [SEQ ID NO: 4] ... inhibitory capacity
SGRRHLHRHHIFSLP [SEQ ID NO: 14] ... inhibitory capacity
PPYHRFWRGHRHAVQ [SEQ ID NO: 6] ... inhibitory capacity
RKWFLQHRRMPVSVL [SEQ ID NO: 13] ... inhibitory capacity

Consider the record given below.
I have this sequence here, WHKYFLRRPLSVRTR [SEQ ID NO: 11] , and I need its recorded inhibition of the biological activity of TGF-β1 in vivo (in words).
inhibitory capacity
